# EXPERIMENT DESCRIPTION: Phase I clinical trial, human plasma pharmacokinetics of oral Compound 1
# Type: in vivo
# CONDITION CONTEXT: human, plasma, po, Day 21, Cohort 4, 176-245 mg/m^2 (340-540 mg), oral daily; read-out: AUC(0-24)
QUANTITY KIND: AUC(0-t) (µg·h/mL)
API: value field is a number in µg·h/mL; no unit string.

Prompt line: Any idea what AUC(0-t) was measured for C[C@H](O)C(=O)N1CCC(CCn2c(Sc3cc4c(cc3Br)OCO4)nc3c(N)ncnc32)CC1 ?
Response line: 127

* * *

# EXPERIMENT DESCRIPTION: Phase I clinical trial, human plasma pharmacokinetics of oral Compound 1
# Format: in vivo
# CONDITION CONTEXT: human, plasma, po, 100 mg/m^2, Day 21, Cohort 2, Subject 201, 100 mg/m^2 (160 mg), oral daily
QUANTITY KIND: half-life (h)
API: value field is a number in h; no unit string.

Prompt line: Any idea what half-life was measured for C[C@H](O)C(=O)N1CCC(CCn2c(Sc3cc4c(cc3Br)OCO4)nc3c(N)ncnc32)CC1 ?
Response line: 11.2

* * *

# EXPERIMENT DESCRIPTION: Phase I clinical trial, human plasma pharmacokinetics of oral Compound 1
# Type: in vivo
# CONDITION CONTEXT: human, plasma, po, 100 mg/m^2, Day 21, Cohort 2, 100 mg/m^2 (160 mg), oral daily
QUANTITY KIND: AUC(0-inf)

Prompt line: Any idea what AUC(0-inf) was measured for C[C@H](O)C(=O)N1CCC(CCn2c(Sc3cc4c(cc3Br)OCO4)nc3c(N)ncnc32)CC1 ?
Response line: 67300 ng·h/mL

* * *

# EXPERIMENT DESCRIPTION: Phase I clinical trial, human plasma pharmacokinetics of oral Compound 1
# Format: in vivo
# CONDITION CONTEXT: human, plasma, po, 340 mg/m^2, Day 21, Cohort 5, 340 mg/m^2 (620 mg), oral daily; read-out: Vz/F
QUANTITY KIND: Vd/F (L)
API: value field is a number in L; no unit string.

Prompt line: Any idea what Vd/F was measured for C[C@H](O)C(=O)N1CCC(CCn2c(Sc3cc4c(cc3Br)OCO4)nc3c(N)ncnc32)CC1 ?
Response line: 36.8

* * *

# EXPERIMENT DESCRIPTION: Plasma pharmacokinetics in N-87 tumor-bearing nude mice
# Assay type: in vivo
# CONDITION CONTEXT: mouse, oral, 200 mg/kg single dose, median values (n = 6), read-out: AUC(0-24)
QUANTITY KIND: AUC(0-t) (µg·h/mL)
API: value field is a number in µg·h/mL; no unit string.

Prompt line: Any idea what AUC(0-t) was measured for C[C@H](O)C(=O)N1CCC(CCn2c(Sc3cc4c(cc3Br)OCO4)nc3c(N)ncnc32)CC1 ?
Response line: 136

* * *

# EXPERIMENT DESCRIPTION: Phase I clinical trial, human plasma pharmacokinetics of oral Compound 1
# Format: in vivo
# CONDITION CONTEXT: human, plasma, po, 240 mg, Day 21, Cohort 6 (BID), 240 mg, oral twice daily; read-out: Vz/F
QUANTITY KIND: Vd/F (L)
API: value field is a number in L; no unit string.

Prompt line: Any idea what Vd/F was measured for C[C@H](O)C(=O)N1CCC(CCn2c(Sc3cc4c(cc3Br)OCO4)nc3c(N)ncnc32)CC1 ?
Response line: 34.6

* * *

# EXPERIMENT DESCRIPTION: Phase I clinical trial, human plasma pharmacokinetics of oral Compound 1
# Format: in vivo
# CONDITION CONTEXT: both sexes, human, plasma, po, 240 mg, Day 01, Cohort 6 (BID), N = 4, 240 mg, oral twice daily
QUANTITY KIND: half-life (h)
API: value field is a number in h; no unit string.

Prompt line: Any idea what half-life was measured for C[C@H](O)C(=O)N1CCC(CCn2c(Sc3cc4c(cc3Br)OCO4)nc3c(N)ncnc32)CC1 ?
Response line: 5.5

* * *

# EXPERIMENT DESCRIPTION: Phase I clinical trial, human plasma pharmacokinetics of oral Compound 1
# Type: in vivo
# CONDITION CONTEXT: human, plasma, po, 100 mg/m^2, Day 21, Cohort 2, Subject 201, 100 mg/m^2 (160 mg), oral daily
QUANTITY KIND: Cmax (ng/mL)
API: value field is a number in ng/mL; no unit string.

Prompt line: Any idea what Cmax was measured for C[C@H](O)C(=O)N1CCC(CCn2c(Sc3cc4c(cc3Br)OCO4)nc3c(N)ncnc32)CC1 ?
Response line: 3180

* * *

# EXPERIMENT DESCRIPTION: Phase I clinical trial, human plasma pharmacokinetics of oral Compound 1
# Assay type: in vivo
# CONDITION CONTEXT: both sexes, human, plasma, po, 240 mg, Day 01, Cohort 6 (BID), N = 4, 240 mg, oral twice daily
QUANTITY KIND: Cmax (ng/mL)
API: value field is a number in ng/mL; no unit string.

Prompt line: Any idea what Cmax was measured for C[C@H](O)C(=O)N1CCC(CCn2c(Sc3cc4c(cc3Br)OCO4)nc3c(N)ncnc32)CC1 ?
Response line: 6250

* * *

# EXPERIMENT DESCRIPTION: Phase I clinical trial, human plasma pharmacokinetics of oral Compound 1
# Type: in vivo
# CONDITION CONTEXT: human, plasma, po, 340 mg/m^2, Day 21, Cohort 5, Subject 503, 340 mg/m^2 (620 mg), oral daily
# Description: A human clinical study was initiated at a starting dose of 50 mg/m^2. Subjects had recurrent cancer refractory to available systemic therapy. Compound 1 was administered daily by mouth in tablet form for 21 consecutive days in a 28 day cycle to each enrolled subject. […] Plasma was collected pre-dose only for cycle 1 day 8. […]
QUANTITY KIND: Tmax (h)
API: value field is a number in h; no unit string.

Prompt line: Any idea what Tmax was measured for C[C@H](O)C(=O)N1CCC(CCn2c(Sc3cc4c(cc3Br)OCO4)nc3c(N)ncnc32)CC1 ?
Response line: 1

* * *

# EXPERIMENT DESCRIPTION: Phase I clinical trial, human plasma pharmacokinetics of oral Compound 1
# Type: in vivo
# CONDITION CONTEXT: human, plasma, po, 100 mg/m^2, Day 21, Cohort 2, Subject 201, 100 mg/m^2 (160 mg), oral daily
QUANTITY KIND: Tmax (h)
API: value field is a number in h; no unit string.

Prompt line: Any idea what Tmax was measured for C[C@H](O)C(=O)N1CCC(CCn2c(Sc3cc4c(cc3Br)OCO4)nc3c(N)ncnc32)CC1 ?
Response line: 6

* * *

# EXPERIMENT DESCRIPTION: Phase I clinical trial, human plasma pharmacokinetics of oral Compound 1
# Assay type: in vivo
# CONDITION CONTEXT: human, plasma, po, 50 mg/m^2, Day 01, Cohort 1, Subject 101, 50 mg/m^2 (100 mg), oral daily
# Method: A human clinical study was initiated at a starting dose of 50 mg/m^2. Subjects had recurrent cancer refractory to available systemic therapy. Compound 1 was administered daily by mouth in tablet form for 21 consecutive days in a 28 day cycle to each enrolled subject. […] Plasma was collected pre-dose only for cycle 1 day 8. […]
QUANTITY KIND: Cmax (ng/mL)
API: value field is a number in ng/mL; no unit string.

Prompt line: Any idea what Cmax was measured for C[C@H](O)C(=O)N1CCC(CCn2c(Sc3cc4c(cc3Br)OCO4)nc3c(N)ncnc32)CC1 ?
Response line: 1900

* * *

# EXPERIMENT DESCRIPTION: Phase I clinical trial, human plasma pharmacokinetics of oral Compound 1
# Type: in vivo
# CONDITION CONTEXT: both sexes, human, plasma, po, Day 21, Cohort 4, N = 6, 176-245 mg/m^2 (340-540 mg), oral daily
QUANTITY KIND: Tmax (h)
API: value field is a number in h; no unit string.

Prompt line: Any idea what Tmax was measured for C[C@H](O)C(=O)N1CCC(CCn2c(Sc3cc4c(cc3Br)OCO4)nc3c(N)ncnc32)CC1 ?
Response line: 2

* * *

# EXPERIMENT DESCRIPTION: Phase I clinical trial, human plasma pharmacokinetics of oral Compound 1
# Type: in vivo
# CONDITION CONTEXT: human, plasma, po, 100 mg/m^2, Day 01, Cohort 2, Subject 201, 100 mg/m^2 (160 mg), oral daily
QUANTITY KIND: Cmax
Form field: result (number plus unit)

Prompt line: Any idea what Cmax was measured for C[C@H](O)C(=O)N1CCC(CCn2c(Sc3cc4c(cc3Br)OCO4)nc3c(N)ncnc32)CC1 ?
Response line: 2950 ng/mL
